Tested on: HL-60
measurementDescription: Growth inhibition against human HL60 cells after 48 hrs by MTT assay
Assay type: functional, cell-based
conditionLabel: HL-60, 48 h
measuredMetric: pIC50
Reminder that pIC50 means the negative base-10 logarithm of the concentration expressed in mol/L.

Take a look at these entries with their results.
INSERT INTO results (samplesmiles, measuredmetric, quantitativeresult) VALUES
  ('O=c1[nH]cc(F)c(=O)[nH]1', 'pIC50', 5.00),
  ('COc1cc([C@@H](O)[C@@H](CO)Oc2ccc(/C=C/C=O)cc2OC)ccc1O', 'pIC50', 4.47),
  ('COc1cc([C@H](O)[C@@H](CO)Oc2ccc(/C=C/C=O)cc2OC)ccc1O', 'pIC50', 4.44),
  ('COc1cc([C@@H](OC)[C@@H](CO)Oc2ccc(/C=C/C=O)cc2OC)ccc1O', 'pIC50', 4.59);

Now, please, on to the next compound.
Could you share what pIC50 was measured for COC/C=C/c1ccc(O[C@H](CO)[C@H](OC)c2ccc(O)c(OC)c2)c(OC)c1 , tested on HL-60?
4.56
